System: Staphylococcus aureus
methodSummary: Antimicrobial activity against methicillin-susceptible Staphylococcus aureus Smith by NCCLS method
Format: functional
recordedEndpoint: MIC (µg/mL)
Reply numerically in µg/mL, unit not repeated.

molecule	targetDesc	MIC / µg/mL
C=C[C@]1(C)C[C@@H](OC(=O)CN2CCN(C(=O)CCn3cnc4c(N5CC[C@@H](CNC)C5)ncnc43)CC2)[C@]2(C)[C@H](C)CC[C@]3(CCC(=O)[C@@H]32)[C@@H](C)[C@@H]1O.Cl.Cl	Staphylococcus aureus	0.25
C=C[C@]1(C)C[C@@H](OC(=O)CN2CCN(C(=O)CCn3cnc4c(N5CCC(N)C5)ncnc43)[C@H](C)C2)[C@]2(C)[C@H](C)CC[C@]3(CCC(=O)[C@@H]32)[C@@H](C)[C@@H]1O.Cl.Cl (stereo not given in full)	Staphylococcus aureus	0.25
C=C[C@]1(C)C[C@@H](OC(=O)CN2CCN(C(=O)CCn3cnc4c(N5CCC(N)C5)ncnc43)CC2)[C@]2(C)[C@H](C)CC[C@]3(CCC(=O)[C@@H]32)[C@@H](C)[C@@H]1O.Cl.Cl (stereo not given in full)	Staphylococcus aureus	0.25

So what MIC did C=C[C@]1(C)C[C@@H](OC(=O)CN2CCN(C(=O)CCn3cnc4c(N5CCC(N)C5)ncnc43)C(C)C2)[C@]2(C)[C@H](C)CC[C@]3(CCC(=O)[C@@H]32)[C@@H](C)[C@@H]1O.Cl.Cl (stereo not given in full) get with Staphylococcus aureus? 0.25

So what MIC did C=C[C@]1(C)C[C@@H](OC(=O)CN2CCN(C(=O)CCn3cnc4c(N5CC[C@@H](N)C5)ncnc43)[C@@H](C)C2)[C@]2(C)[C@H](C)CC[C@]3(CCC(=O)[C@@H]32)[C@@H](C)[C@@H]1O.Cl.Cl get with Staphylococcus aureus? 0.125

So what MIC did C=C[C@]1(C)C[C@@H](OC(=O)CN2CC(C)N(C(=O)CCn3cnc4c(N5CCC(N)C5)ncnc43)CC2C)[C@]2(C)[C@H](C)CC[C@]3(CCC(=O)[C@@H]32)[C@@H](C)[C@@H]1O.Cl.Cl (stereo not given in full) get with Staphylococcus aureus? 0.25

So what MIC did C=C[C@]1(C)C[C@@H](OC(=O)CN2CCN(C(=O)CCn3cnc4c(N5CCC(N)C5)ncnc43)[C@@H](C)C2)[C@]2(C)[C@H](C)CC[C@]3(CCC(=O)[C@@H]32)[C@@H](C)[C@@H]1O.Cl.Cl (stereo not given in full) get with Staphylococcus aureus? 0.125

So what MIC did C=C[C@]1(C)C[C@@H](OC(=O)CN2CCN(C(=O)CCn3cnc4c(N5CCC(N)C5)ncnc43)C[C@@H]2C)[C@]2(C)[C@H](C)CC[C@]3(CCC(=O)[C@@H]32)[C@@H](C)[C@@H]1O.Cl (stereo not given in full) get with Staphylococcus aureus? 0.25

So what MIC did C=C[C@]1(C)C[C@@H](OC(=O)CN2CCN(C(=O)CCn3cnc4c(N5CC[C@H](CNC)C5)ncnc43)[C@@H](C)C2)[C@]2(C)[C@H](C)CC[C@]3(CCC(=O)[C@@H]32)[C@@H](C)[C@@H]1O.Cl.Cl get with Staphylococcus aureus? 0.25

So what MIC did C=C[C@]1(C)C[C@@H](OC(=O)CN2CCN(C(=O)CCn3cnc4c(N5CCC(N)C5)ncnc43)C(C)(C)C2)[C@]2(C)[C@H](C)CC[C@]3(CCC(=O)[C@@H]32)[C@@H](C)[C@@H]1O.Cl.Cl (stereo not given in full) get with Staphylococcus aureus? 0.125
